- experimental-system: Sodium-dependent noradrenaline transporter (Homo sapiens, UniProt P23975)
- Sequence (P23975 whole entry): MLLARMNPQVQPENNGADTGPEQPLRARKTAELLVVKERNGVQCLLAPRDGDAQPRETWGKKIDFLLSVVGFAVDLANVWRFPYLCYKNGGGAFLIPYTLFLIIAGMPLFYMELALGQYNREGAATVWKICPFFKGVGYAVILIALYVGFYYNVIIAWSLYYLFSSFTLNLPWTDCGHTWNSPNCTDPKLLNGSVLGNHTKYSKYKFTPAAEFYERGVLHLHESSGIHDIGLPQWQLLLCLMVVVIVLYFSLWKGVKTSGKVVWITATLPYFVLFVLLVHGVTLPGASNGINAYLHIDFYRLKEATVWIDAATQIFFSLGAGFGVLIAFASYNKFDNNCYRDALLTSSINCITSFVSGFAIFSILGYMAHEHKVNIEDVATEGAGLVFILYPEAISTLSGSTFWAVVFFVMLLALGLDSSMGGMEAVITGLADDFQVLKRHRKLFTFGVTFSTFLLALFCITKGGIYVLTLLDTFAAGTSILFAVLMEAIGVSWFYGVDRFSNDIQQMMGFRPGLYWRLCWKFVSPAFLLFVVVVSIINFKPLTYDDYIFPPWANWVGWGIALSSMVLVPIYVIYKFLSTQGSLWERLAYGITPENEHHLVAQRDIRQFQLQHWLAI
test-readout: pKi
In plain terms, pKi is the concentration in mol/L turned into minus its base-10 logarithm.

- compound: "CC(C)CC(c1cccc(Cl)c1)C1CCCCN1 (stereo in doubt; form 1)"
  measurement: 7.64
- compound: "COc1cccc(C(CC(C)C)C2CCCCN2)c1 (stereo in doubt; form 2)"
  measurement: 4.92
- compound: "COC(=O)C(c1ccccc1)C1CCCCN1 (stereo unspecified) [METHYLPHENIDATE]"
  measurement: 6.18
- compound: "CCC(CC)C(c1ccc(Cl)cc1)C1CCCCN1 (stereo in doubt; form 2)"
  measurement: 5.37
- compound: "CC(C)CC(c1ccc(Cl)c(Cl)c1)C1CCCCN1 (stereo in doubt; form 1)"
  measurement: 7.60

Enquiry: Missing value: pKi, Sodium-dependent noradrenaline transporter (Homo sapiens, UniProt P23975), entry CC(C)CCC(c1ccc(Cl)cc1)C1CCCCN1 (stereo in doubt; form 2) . Fill in?
Return: 4.92

Enquiry: Notebook entry, Sodium-dependent noradrenaline transporter (Homo sapiens, UniProt P23975) assay: pKi of CC(C)CCC(c1ccc(Cl)cc1)C1CCCCN1 (stereo in doubt; form 1) = ?
Return: 6.08

Enquiry: Reported pKi for Sodium-dependent noradrenaline transporter (Homo sapiens, UniProt P23975), given CCC(CC)C(c1ccc(Cl)cc1)C1CCCCN1 (stereo in doubt; form 1) ?
Return: 6.01

Enquiry: Missing value: pKi, Sodium-dependent noradrenaline transporter (Homo sapiens, UniProt P23975), entry CC(C)CC(c1cccc(Cl)c1)C1CCCCN1 (stereo in doubt; form 2) . Fill in?
Return: 6.47

Enquiry: Form field - read-out: pKi; system: Sodium-dependent noradrenaline transporter (Homo sapiens, UniProt P23975); submitted item: CC(=O)C(c1ccccc1)C1CCCCN1 (stereo unspecified)
Return: 5.57

Enquiry: Request - read-out pKi | tested on Sodium-dependent noradrenaline transporter (Homo sapiens, UniProt P23975) | compound CCCCC(c1ccc(Cl)c(Cl)c1)C1CCCCN1 (stereo in doubt; form 2)
Return: 7.51

Enquiry: Notebook entry, Sodium-dependent noradrenaline transporter (Homo sapiens, UniProt P23975) assay: pKi of COc1cccc(C(CC(C)C)C2CCCCN2)c1 (stereo in doubt; form 1) = ?
Return: 5.42

Enquiry: Provide value of pKi for this record tested with Sodium-dependent noradrenaline transporter (Homo sapiens, UniProt P23975): CC(C)CC(c1ccc(Cl)c(Cl)c1)C1CCCCN1 (stereo in doubt; form 2)
Return: 6.92

Enquiry: Kindly state the measured pKi obtained for Clc1ccc(C(CCCc2ccccc2)C2CCCCN2)cc1 (stereo in doubt; form 2) with Sodium-dependent noradrenaline transporter (Homo sapiens, UniProt P23975).
Return: 5.82

Enquiry: Record COc1ccc(C(CC(C)C)C2CCCCN2)cc1 (stereo in doubt; form 2) : what is its pKi with Sodium-dependent noradrenaline transporter (Homo sapiens, UniProt P23975)?
Return: 4.80

Enquiry: Record CCCC(c1ccc(Cl)cc1)C1CCCCN1 (stereo unspecified) : what is its pKi with Sodium-dependent noradrenaline transporter (Homo sapiens, UniProt P23975)?
Return: 6.70

Enquiry: Record CCCC(c1ccc(Cl)c(Cl)c1)C1CCCCN1 (stereo in doubt; form 2) : what is its pKi with Sodium-dependent noradrenaline transporter (Homo sapiens, UniProt P23975)?
Return: 7.52

* * *

Measured pKi (Sodium-dependent noradrenaline transporter (Homo sapiens, UniProt P23975))
Please note pKi is a logarithmic value: minus log10 of concentration in mol/L. Answer with that number alone.

Answered examples (7):
- compound: "CCCC(c1ccc(Cl)c(Cl)c1)C1CCCCN1 (stereo in doubt; form 1)"
  pKi: 8.41
- compound: "CCCCCC(c1ccc(Cl)cc1)C1CCCCN1 (stereo in doubt; form 2)"
  pKi: 5.82
- compound: "CC(c1ccc(Cl)cc1)C1CCCCN1 (stereo in doubt; form 1)"
  pKi: 6.44
- compound: "CCCCC(c1ccc(Cl)c(Cl)c1)C1CCCCN1 (stereo in doubt; form 1)"
  pKi: 7.92
- compound: "CCCCCC(c1ccc(Cl)cc1)C1CCCCN1 (stereo in doubt; form 1)"
  pKi: 6.80
- compound: "CC(C)CC(c1ccc(Cl)cc1)C1CCCCN1 (stereo in doubt; form 2)"
  pKi: 5.35
- compound: "Clc1ccc(C(CCCc2ccccc2)C2CCCCN2)cc1 (stereo in doubt; form 1)"
  pKi: 6.31

Proceeding to the next compound to report its pKi.
Enquiry: Fill in: pKi of COc1ccc(C(CC(C)C)C2CCCCN2)cc1 (stereo in doubt; form 1) is ___
Return: 5.51

* * *

Readings of IC50 for the listed compounds
- experimental-system: Sodium-dependent serotonin transporter (Homo sapiens, UniProt P31645)
- Sequence (P31645 whole entry): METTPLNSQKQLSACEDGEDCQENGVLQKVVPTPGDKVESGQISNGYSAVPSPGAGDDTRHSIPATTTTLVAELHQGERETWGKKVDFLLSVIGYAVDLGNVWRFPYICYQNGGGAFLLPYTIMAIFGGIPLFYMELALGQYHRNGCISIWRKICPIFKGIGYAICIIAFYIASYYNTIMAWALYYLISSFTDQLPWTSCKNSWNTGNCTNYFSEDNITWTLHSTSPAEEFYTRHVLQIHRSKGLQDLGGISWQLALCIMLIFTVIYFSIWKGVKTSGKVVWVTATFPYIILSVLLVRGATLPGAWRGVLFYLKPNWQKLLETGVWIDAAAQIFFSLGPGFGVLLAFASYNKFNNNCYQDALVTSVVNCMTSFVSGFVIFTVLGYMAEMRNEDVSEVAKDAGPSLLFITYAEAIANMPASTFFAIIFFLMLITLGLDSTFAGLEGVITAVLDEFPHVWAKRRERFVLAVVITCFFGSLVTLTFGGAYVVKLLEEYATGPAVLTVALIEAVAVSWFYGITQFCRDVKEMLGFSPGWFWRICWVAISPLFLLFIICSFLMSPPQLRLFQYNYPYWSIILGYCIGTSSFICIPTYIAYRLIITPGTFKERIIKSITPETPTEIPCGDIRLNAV
- measurement-protocol: Inhibition of [3H]5-HT uptake into human SERT expressing HEK293 cells

- compound: "CCC(CC)C(c1ccc(Cl)cc1)C1CCCCN1 (stereo in doubt; form 2)"
  IC50: "> 9.6 µM"
- compound: "CCCCCC(c1ccc(Cl)cc1)C1CCCCN1 (stereo in doubt; form 2)"
  IC50: "1.7 µM"
- compound: "COC(=O)C(c1ccc(Cl)cc1)C1CCCCN1 (stereo in doubt; form 1)"
  IC50: "> 9.8 µM"

Enquiry: Find IC50 (Sodium-dependent serotonin transporter (Homo sapiens, UniProt P31645)) for the entry Clc1ccc(C(CCCc2ccccc2)C2CCCCN2)cc1 (stereo in doubt; form 2)
Return: 1.2 µM

Enquiry: // map Clc1ccc(C(CCc2ccccc2)C2CCCCN2)cc1 (stereo not given) to recorded IC50 (system: Sodium-dependent serotonin transporter (Homo sapiens, UniProt P31645))
Return: 0.21 µM

* * *

- experimental-system: Sodium-dependent dopamine transporter (Homo sapiens)
- measurement-protocol: Inhibition of [3H]DA uptake at human DAT expressing HEK293 cells
test-readout: log10 of IC50 (log10 of the value in nM)
Response schema: value (number) is log10 of IC50 in units of nM.

- compound: "CC(C)CCC(c1ccc(Cl)cc1)C1CCCCN1 (stereo in doubt; form 1)"
  log10 of IC50: 1.15
- compound: "CCCCC(c1ccc(Cl)c(Cl)c1)C1CCCCN1 (stereo in doubt; form 1)"
  log10 of IC50: 0.76
- compound: "CCCC(c1ccc(Cl)cc1)C1CCCCN1 (configuration not stated)"
  log10 of IC50: 0.87
- compound: "COc1ccc(C(CC(C)C)C2CCCCN2)cc1 (stereo in doubt; form 2)"
  log10 of IC50: 2.60

Enquiry: Look at this compound and give its reported log10 of IC50. COc1cccc(C(CC(C)C)C2CCCCN2)c1 (stereo in doubt; form 2)
Return: 2.15

* * *

log10(Ki) reference
- experimental-system: Sodium-dependent serotonin transporter (Homo sapiens, UniProt P31645)
Friendly reminder: values = log10 of Ki, unit µM.

Known results for molecules:
- molecule: "COc1ccc(C(CC(C)C)C2CCCCN2)cc1 (stereo in doubt; form 1)"
  test-readout: "log10(Ki)"
  measurement: 0.45
- molecule: "CC(C)CCC(c1ccc(Cl)cc1)C1CCCCN1 (stereo in doubt; form 1)"
  test-readout: "log10(Ki)"
  measurement: 0.70
- molecule: "COc1cccc(C(CC(C)C)C2CCCCN2)c1 (stereo in doubt; form 1)"
  test-readout: "log10(Ki)"
  measurement: 0.62
- molecule: "CCCCC(c1ccc(Cl)c(Cl)c1)C1CCCCN1 (stereo in doubt; form 1)"
  test-readout: "log10(Ki)"
  measurement: 0.11
- molecule: "CC(C)CC(c1ccc(Cl)c(Cl)c1)C1CCCCN1 (stereo in doubt; form 1)"
  test-readout: "log10(Ki)"
  measurement: 0.20

Enquiry: Provide the documented log10(Ki) with Sodium-dependent serotonin transporter (Homo sapiens, UniProt P31645) as the system for CCC(c1ccc(Cl)cc1)C1CCCCN1 (stereo not given)
Return: 0.62

Enquiry: Observed log10(Ki) on Sodium-dependent serotonin transporter (Homo sapiens, UniProt P31645) for CCCC(c1ccc(Cl)c(Cl)c1)C1CCCCN1 (stereo in doubt; form 2) , please.
Return: -0.35

Enquiry: Which log10(Ki) is reported with Sodium-dependent serotonin transporter (Homo sapiens, UniProt P31645) for this entry: CC(C)CC(c1ccc(Cl)c(Cl)c1)C1CCCCN1 (stereo in doubt; form 2) ?
Return: -0.35

Enquiry: What reported log10(Ki) corresponds to CCCC(c1ccc(Cl)cc1)C1CCCCN1 (stereo not given) on Sodium-dependent serotonin transporter (Homo sapiens, UniProt P31645)?
Return: 0.43

* * *

- experimental-system: Sodium-dependent dopamine transporter (Homo sapiens, UniProt Q01959)
- Sequence (Q01959 whole entry): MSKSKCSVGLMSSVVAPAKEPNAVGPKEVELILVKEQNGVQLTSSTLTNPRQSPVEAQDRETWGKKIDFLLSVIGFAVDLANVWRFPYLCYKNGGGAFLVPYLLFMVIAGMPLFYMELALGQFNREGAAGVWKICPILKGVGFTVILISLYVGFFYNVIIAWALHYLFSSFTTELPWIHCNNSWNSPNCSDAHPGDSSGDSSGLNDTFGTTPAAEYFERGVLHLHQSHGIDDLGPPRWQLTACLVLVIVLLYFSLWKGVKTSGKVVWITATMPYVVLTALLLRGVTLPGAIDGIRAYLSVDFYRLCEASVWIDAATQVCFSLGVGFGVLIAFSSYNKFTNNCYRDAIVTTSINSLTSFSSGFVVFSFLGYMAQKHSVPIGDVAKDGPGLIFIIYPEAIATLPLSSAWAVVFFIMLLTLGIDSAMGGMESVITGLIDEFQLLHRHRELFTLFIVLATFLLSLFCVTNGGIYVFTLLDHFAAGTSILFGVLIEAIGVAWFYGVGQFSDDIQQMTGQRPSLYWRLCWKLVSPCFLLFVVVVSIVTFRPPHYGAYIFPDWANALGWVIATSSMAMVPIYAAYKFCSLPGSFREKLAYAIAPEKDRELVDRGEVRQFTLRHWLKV
pKi: −log10 of the molar value.
Classification field: enter TRUE for pKi values not below 6, FALSE for values below it.

- compound: "CCCC(c1ccc(Cl)c(Cl)c1)C1CCCCN1 (stereo in doubt; form 1)"
  assigned-class: "TRUE"
- compound: "CCCCC(c1ccc(Cl)c(Cl)c1)C1CCCCN1 (stereo in doubt; form 2)"
  assigned-class: "TRUE"
- compound: "CC(C)CC(c1ccc(Cl)cc1)C1CCCCN1 (stereo in doubt; form 2)"
  assigned-class: "TRUE"
- compound: "CC(C)CCC(c1ccc(Cl)cc1)C1CCCCN1 (stereo in doubt; form 2)"
  assigned-class: "TRUE"
- compound: "COc1ccc(C(CC(C)C)C2CCCCN2)cc1 (stereo in doubt; form 1)"
  assigned-class: "TRUE"
- compound: "CC(C)CC(c1cccc(Cl)c1)C1CCCCN1 (stereo in doubt; form 1)"
  assigned-class: "TRUE"
- compound: "CCC(CC)C(c1ccc(Cl)cc1)C1CCCCN1 (stereo in doubt; form 2)"
  assigned-class: "FALSE"
- compound: "Clc1ccc(C(CCCc2ccccc2)C2CCCCN2)cc1 (stereo in doubt; form 2)"
  assigned-class: "FALSE"

Enquiry: Could you please find out whether CC(C)CC(c1ccc(Cl)c(Cl)c1)C1CCCCN1 (stereo in doubt; form 2) has pKi that meets 6 or exceeds it?
Return: TRUE

Enquiry: Hello, I need to know if CCC(c1ccc(Cl)cc1)C1CCCCN1 (configuration not stated) has measured pKi not below 6. Thanks!
Return: FALSE

Enquiry: Identify whether the reported pKi of the following compound is 6 or greater: COc1cccc(C(CC(C)C)C2CCCCN2)c1 (stereo in doubt; form 1)
Return: TRUE
